Assayed target: T1, MICA*001-BirA (human, UniProt Q29983 24-297)
T1 construct: also called MICA-BirA; MICA*01-BirA; not shown: BirA tag
T1 sequence: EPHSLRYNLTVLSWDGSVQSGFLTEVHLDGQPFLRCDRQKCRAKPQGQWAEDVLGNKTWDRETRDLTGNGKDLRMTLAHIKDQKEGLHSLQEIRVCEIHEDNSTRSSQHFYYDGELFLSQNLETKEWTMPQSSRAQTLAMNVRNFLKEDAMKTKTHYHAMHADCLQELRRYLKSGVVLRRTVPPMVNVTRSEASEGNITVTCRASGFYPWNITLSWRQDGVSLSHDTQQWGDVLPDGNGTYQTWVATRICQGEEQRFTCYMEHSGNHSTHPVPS
Experimental details: SPR single cycle kinetics, monovalent mean KD at pH 7.4, antibody captured on Protein-G chip, MICA-BirA injected
Each entry below carries its recorded Kd.
The reply should be a number in nM, with the unit left off.

Looking up CHG1-M-MIA-15F9 (antibody, human IgG1, V domains shown, the VH entry ends with ASTK) VH: DVQLQESGPDLVKPSQSLSLTCTVTGYSITSGYSWHWIRQFPGNKLEWMGFIHYSGSTDYNPSLKSRISLTRDTSKNQFFLQLNSVSTEDTATYYCAKDYGHWYFDVWGAGTTVTVSS VL: SIVMTQTPKFLLVSAGDRVTITCKASQSVSYDVAWYQQKPGQSPKLLIFYASNRYTGVPARFTGSGYGTDFTFTISTVQAEDLAVYFCQQDYSSLTFGAGTKLELK , I see its Kd listed as 61

Alright, here's another binder for you.
Looking up CHG1-M-MIA-12A10 (antibody, human IgG1, V domains shown, the VH entry ends with ASTK) VH: QVQLQQSGADLVRPGASVRLSCRASGYSFTNYWMNWVKQRPGQGLEWIGMIHPSDSETRLNQKFKDKATLTVDKSSNTAYMQLSSPTSEDSAIYYCARDDFFTMDYWGQGTSVTVSS VL: DILLTQSPAILSVSPGERVSFSCRASQNIVTSIHWYQQSTNGSPRLLIKYASESISGIPSRFSGSGSGTDFTLTINSVESEDVADYYCQQSNIWPLTFGAGTKLELK , I see its Kd listed as 53
